- target-entity: recombinant human NK3 receptor (Homo sapiens, UniProt P29371)
- Construct: expressed in transfected cells; host or cells: HEK293 cells, transient expression; membranes
- Sequence (P29371 1-465): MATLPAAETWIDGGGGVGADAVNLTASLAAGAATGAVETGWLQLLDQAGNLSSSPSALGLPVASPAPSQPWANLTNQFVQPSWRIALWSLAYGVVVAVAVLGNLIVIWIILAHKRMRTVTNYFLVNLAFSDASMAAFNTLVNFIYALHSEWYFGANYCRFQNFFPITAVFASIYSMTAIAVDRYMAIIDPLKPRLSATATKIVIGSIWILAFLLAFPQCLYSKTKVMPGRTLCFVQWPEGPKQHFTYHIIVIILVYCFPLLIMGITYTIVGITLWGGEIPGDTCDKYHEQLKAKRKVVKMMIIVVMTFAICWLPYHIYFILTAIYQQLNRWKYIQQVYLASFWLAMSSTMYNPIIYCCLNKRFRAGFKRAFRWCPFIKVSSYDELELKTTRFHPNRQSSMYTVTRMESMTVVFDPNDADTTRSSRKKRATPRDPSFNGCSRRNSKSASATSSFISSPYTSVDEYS
- experiment-notes: [3H]SR142801 competition binding assay
- assay-context: membranes from HEK293 cells transiently expressing recombinant human NK3 receptor; [3H]SR142801 radioligand; Ki by Cheng-Prussoff
value-type: pKi
pKi (log units): -log10 of the concentration in mol/L.

compound	pKi
C[C@H](Oc1ccc(C(F)(F)F)cn1)[C@H]1CN(C(=O)N2CCN(S(C)(=O)=O)CC2)C[C@@H]1c1ccc(Cl)c(Cl)c1 (racemic) [Example 69]	8.25

Quick one: pKi for CC(=O)N1CCN(CC(=O)N2C[C@@H]([C@@H](C)Oc3ccc(Cl)cc3)[C@H](c3ccc(Cl)c(Cl)c3)C2)CC1 (racemic) [Example 66] ?
7.96

# get_value(readout='pKi', item= C[C@H](Oc1ccc(C#N)cn1)[C@H]1CN(C(=O)N2CCC(C#N)CC2)C[C@@H]1c1ccc(Cl)c(Cl)c1 (racemic) [Example 71] )
8.06

----------
- target-entity: recombinant human NK3 receptor (Homo sapiens, UniProt P29371)
- Construct: membranes
- Sequence (P29371 1-465): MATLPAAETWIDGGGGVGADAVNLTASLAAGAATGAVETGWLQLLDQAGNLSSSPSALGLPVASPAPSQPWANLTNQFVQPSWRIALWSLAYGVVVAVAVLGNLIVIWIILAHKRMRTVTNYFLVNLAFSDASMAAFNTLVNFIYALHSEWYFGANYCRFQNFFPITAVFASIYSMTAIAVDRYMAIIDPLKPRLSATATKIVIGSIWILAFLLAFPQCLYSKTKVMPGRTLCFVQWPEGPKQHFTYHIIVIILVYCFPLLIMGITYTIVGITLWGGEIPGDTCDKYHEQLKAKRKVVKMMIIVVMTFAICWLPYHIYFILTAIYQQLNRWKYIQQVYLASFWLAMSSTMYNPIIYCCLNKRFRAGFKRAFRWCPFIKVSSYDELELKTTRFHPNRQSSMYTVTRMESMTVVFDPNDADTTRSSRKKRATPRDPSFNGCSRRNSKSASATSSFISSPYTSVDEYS
- experiment-notes: [3H]SR142801 competition binding assay
- assay-context: membranes from HEK293 cells transiently expressing recombinant human NK3 receptor; [3H]SR142801 radioligand; Ki by Cheng-Prussoff
Parameter: Ki. Scope: all listed entries.
A number alone suffices; assume nM.

Example cases with answers are listed next.
compound	test-value
C[C@H](Oc1ccc(C#N)cc1)[C@@H]1CN(C(=O)N2CCN(S(C)(=O)=O)CC2)C[C@H]1c1ccc(Cl)c(Cl)c1 (racemic) [Example 45]	95.4
C[C@H](Oc1ccc(F)cn1)[C@@H]1CN(C(=O)N2CCN(S(C)(=O)=O)CC2)C[C@H]1c1ccc(Cl)c(Cl)c1 (racemic) [Example 57]	64.7

What does the data say about its Ki? Entry: C[C@@H](Oc1ccc(Cl)cn1)[C@@H]1CN(C(=O)CN2CC3CC2CO3)C[C@H]1c1ccc(Cl)c(Cl)c1 (stereo partly shown) [Example 68]
27

Entry C[C@H](Oc1ccc(C(F)(F)F)cn1)[C@H]1CN(C(=O)N2CC3CC2CO3)C[C@@H]1c1ccc(Cl)c(Cl)c1 (mixture of isomers) [Example 73] has what Ki?
93

Which value of Ki has been reported for C[C@@H](Oc1ccc(Cl)cn1)[C@@H]1CN(C(=O)N2CCN(S(C)(=O)=O)CC2)C[C@H]1c1ccc(Cl)c(Cl)c1 (racemic) [Example 39] in the records?
2.9

Would you kindly share the measured Ki for C[C@@H](Oc1ccc(Cl)cc1)[C@@H]1CN(C(=O)N2CCN(S(C)(=O)=O)CC2)C[C@H]1c1ccc(Cl)c(Cl)c1 (mixture of isomers) [Example 36] ?
21.1

// lookup Ki for C[C@H](Oc1ccc(F)cc1)[C@@H]1CN(C(=O)N2CCN(S(C)(=O)=O)CC2)C[C@H]1c1ccc(Cl)c(Cl)c1 (racemic) [Example 46]
49.7
